Catalogue of Fold increase over parent readings, one per entry.
Target: T1, cynomolgus MCSP D3 (cynomolgus, UniProt Q6UVK1 1582-2224 (human entry), limits assumed)
T1 construct: also called Cyno MCSP; cynomolgus homologue
T1 chain: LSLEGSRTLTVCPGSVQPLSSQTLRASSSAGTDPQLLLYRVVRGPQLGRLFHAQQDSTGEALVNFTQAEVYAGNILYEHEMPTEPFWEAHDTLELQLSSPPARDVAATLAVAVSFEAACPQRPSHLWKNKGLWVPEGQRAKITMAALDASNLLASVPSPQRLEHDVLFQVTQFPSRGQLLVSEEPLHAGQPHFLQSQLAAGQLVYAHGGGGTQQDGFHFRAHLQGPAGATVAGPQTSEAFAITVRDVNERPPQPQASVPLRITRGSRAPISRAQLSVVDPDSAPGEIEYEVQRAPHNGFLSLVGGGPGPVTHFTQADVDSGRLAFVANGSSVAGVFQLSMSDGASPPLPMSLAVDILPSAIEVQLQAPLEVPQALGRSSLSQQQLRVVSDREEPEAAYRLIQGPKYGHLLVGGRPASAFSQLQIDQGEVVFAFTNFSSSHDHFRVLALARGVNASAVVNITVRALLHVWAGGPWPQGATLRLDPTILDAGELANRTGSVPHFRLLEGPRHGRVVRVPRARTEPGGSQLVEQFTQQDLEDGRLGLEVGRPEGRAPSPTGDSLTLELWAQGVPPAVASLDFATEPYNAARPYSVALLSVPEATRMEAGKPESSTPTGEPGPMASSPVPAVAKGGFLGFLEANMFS
Assay: ratio of ProteOn IgG KD, parent M4-3/ML2 against variant

| binder | unit.text | Fold increase over parent |
| --- | --- | --- |
| M4-3/ML2(E10/G3) IgG (antibody, V domains shown, Human IgG1) VH: QVQLQESGPGLVKPSQTLSLTCTVSGGSITSGYYWNWIRQHPGKGLEWIGYITYDGSNNYNPSLKSRVTISRDTSKNQFSLKLSSVTAADTAVYYCADFDYWGQGTLVTVSS VL: DIQMTQSPSSLSASVGDRVTITCRASYGIRGYLNWYQQKPGKAPKLLIYYTSSLHSGVPSRFSGSGSGTDFTLTISSLQPEDFATYHCQQYSALPWTFGQGTKVEIK | fold | 2.2 |
| M4-3(A7)/ML2(E10) IgG (antibody, V domains shown, Human IgG1) VH: QVQLQESGPGLVKPSQTLSLTCTVSGGSITDGYYWNWIRQHPGKGLEWIGYITFDGRNNYNPSLKSRVTISRDTSKNQFSLKLSSVTAADTAVYYCADFDYWGQGTLVTVSS VL: DIQMTQSPSSLSASVGDRVTITCRASYGIRGYLNWYQQKPGKAPKLLIYYTSSLHSGVPSRFSGSGSGTDFTLTISSLQPEDFATYHCQQYSKLPWTFGQGTKVEIK | fold | 2.9 |
| M4-3(C1)/ML2(G3) IgG (antibody, V domains shown, Human IgG1) VH: QVQLQESGPGLVKPSQTLSLTCTVSGGSITSGYYWNWIRQHPGKGLEWIGYITFDGSNNYNPSLKSRVTISRDTSKNQFSLKLSSVTAADTAVYYCADFDYWGQGTLVTVSS VL: DIQMTQSPSSLSASVGDRVTITCRASQGIRNYLNWYQQKPGKAPKLLIYYTSSLHSGVPSRFSGSGSGTDYTLTISSLQPEDFATYYCQQYSALPWTFGQGTKVEIKR | fold | 10 |
